All values here come from the Human Domainome abundance scans (Beltran et al. 2025).

B1: Max-interacting protein 1, residues 70 to 120; numbered along this chain, P50539 (parent)
chain: STHNELEKNRRAHLRLCLERLKVLIPLGPDCTRHTTLGLLNKAKAHIKKLE

- Variants of: B1
- assay_info: abundance fitness (aPCA) (normalised: wild type 0, dead -1); higher = more abundant; growth selection in yeast, the domain comes from the species named
- run_conditions: Homo sapiens
Where abundance fitness equals or exceeds -0.4, the correct label is Y; where it does not, the label is N.

Below are worked cases with known answers.
{"columns": ["variant_notation", "qualitative_label"],
 "data": [
  ["R11D", "Y"],
  ["D30E", "Y"],
  ["K49L", "Y"],
  ["K8W", "N"],
  ["R15W", "Y"]
]}

Prompt: Kindly determine if abundance fitness recorded for L18P is above or exactly -0.4.
Completion: N

Prompt: Kindly determine if abundance fitness recorded for A45S is above or exactly -0.4.
Completion: Y

Prompt: Kindly determine if abundance fitness recorded for A12P is above or exactly -0.4.
Completion: Y

Prompt: Kindly determine if abundance fitness recorded for L16G is above or exactly -0.4.
Completion: Y

Prompt: Kindly determine if abundance fitness recorded for H3E is above or exactly -0.4.
Completion: Y
